Biological target: T1, Cren7 (recombinant) (Sulfolobus solfataricus P2, UniProt Q97ZE3 1-60)
T1 sequence: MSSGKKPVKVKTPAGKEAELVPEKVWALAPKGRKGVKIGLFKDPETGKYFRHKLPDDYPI
Assay: EMSA
pKd: −log10 of the molar value.
recordedMetric: pKd

Exercise: Consider the binder poly(GACT)15 60 nt ssDNA (ssDNA) DNA: GACTGACTGACTGACTGACTGACTGACTGACTGACTGACTGACTGACTGACTGACTGACT and give its measured pKd.
Solution: ~5.60
